- Test target: UniProt Q08828
- Sequence (Q08828 whole entry): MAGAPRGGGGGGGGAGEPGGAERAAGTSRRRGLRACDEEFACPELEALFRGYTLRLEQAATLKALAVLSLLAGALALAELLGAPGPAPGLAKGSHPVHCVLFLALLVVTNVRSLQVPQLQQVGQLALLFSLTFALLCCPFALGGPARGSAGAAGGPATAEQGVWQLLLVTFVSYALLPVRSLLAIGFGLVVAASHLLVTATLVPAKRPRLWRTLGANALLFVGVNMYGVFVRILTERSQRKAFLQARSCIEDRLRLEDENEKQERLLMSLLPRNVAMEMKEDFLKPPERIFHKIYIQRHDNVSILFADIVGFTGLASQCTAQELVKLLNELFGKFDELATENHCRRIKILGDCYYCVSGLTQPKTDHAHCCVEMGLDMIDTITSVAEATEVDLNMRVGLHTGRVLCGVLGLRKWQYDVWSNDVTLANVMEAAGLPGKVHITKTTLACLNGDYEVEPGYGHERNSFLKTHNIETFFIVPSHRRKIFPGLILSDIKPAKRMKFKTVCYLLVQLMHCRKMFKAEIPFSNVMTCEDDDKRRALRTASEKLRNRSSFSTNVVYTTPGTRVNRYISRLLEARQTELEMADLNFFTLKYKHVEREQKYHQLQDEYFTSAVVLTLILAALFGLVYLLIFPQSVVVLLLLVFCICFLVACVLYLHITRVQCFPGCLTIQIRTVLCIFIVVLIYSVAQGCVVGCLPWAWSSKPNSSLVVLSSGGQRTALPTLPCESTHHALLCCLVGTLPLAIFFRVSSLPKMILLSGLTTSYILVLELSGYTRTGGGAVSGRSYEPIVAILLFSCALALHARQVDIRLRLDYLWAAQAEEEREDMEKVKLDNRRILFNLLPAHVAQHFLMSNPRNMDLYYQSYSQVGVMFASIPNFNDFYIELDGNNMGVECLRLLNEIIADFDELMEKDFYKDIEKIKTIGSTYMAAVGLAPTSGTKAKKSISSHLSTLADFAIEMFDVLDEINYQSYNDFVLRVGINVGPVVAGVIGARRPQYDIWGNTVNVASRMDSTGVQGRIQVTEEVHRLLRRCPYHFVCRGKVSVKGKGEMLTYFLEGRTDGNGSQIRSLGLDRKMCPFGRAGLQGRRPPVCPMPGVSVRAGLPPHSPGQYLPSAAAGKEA
- Experimental details: Inhibition of [125 I]6-IHPP-forskolin binding to adenylate cyclase 1
Readout type: IC50 (nM)

Look over these answered cases.
Query string: Given the entry C=C[C@@]1(C)CC(=O)[C@]2(O)[C@@]3(C)[C@@H](O)CCC(C)(C)[C@@H]3[C@H](OC(=O)NCC(C)C)[C@H](O)[C@@]2(C)O1 , report its measured IC50.
Result string: 593

Query string: Given the entry C=C[C@@]1(C)CC(=O)[C@]2(O)[C@@]3(C)[C@@H](O)CCC(C)(C)[C@@H]3[C@H](O)[C@H](OC(=O)NCCC(C)(C)C)[C@@]2(C)O1 , report its measured IC50.
Result string: 608

Query string: Given the entry C=C[C@@]1(C)CC(=O)[C@]2(O)[C@@]3(C)[C@@H](O)CCC(C)(C)[C@@H]3[C@H](OC(=O)NCCC(=O)OCC)[C@H](OC(C)=O)[C@@]2(C)O1 , report its measured IC50.
Result string: 44

Query string: Given the entry C=C[C@@]1(C)CC(=O)[C@]2(O)[C@@]3(C)[C@@H](O)CCC(C)(C)[C@@H]3[C@H](OC(=O)NCCN3CCCCC3)[C@H](O)[C@@]2(C)O1 , report its measured IC50.
Result string: 123

Query string: Given the entry C=C[C@@]1(C)CC(=O)[C@]2(O)[C@@]3(C)[C@@H](O)CCC(C)(C)[C@@H]3[C@H](OC(=O)NCCN)[C@H](OC(C)=O)[C@@]2(C)O1 , report its measured IC50.
Result string: 31

Query string: Given the entry C=C[C@@]1(C)CC(=O)[C@]2(O)[C@@]3(C)[C@@H](O)CCC(C)(C)[C@@H]3[C@H](OC(=O)NCCC(C)(C)C)[C@H](OC(C)=O)[C@@]2(C)O1 , report its measured IC50.
Result string: 271

(A) C=CCNC(=O)O[C@H]1[C@@H](O)[C@H]2C(C)(C)CC[C@H](O)[C@]2(C)[C@@]2(O)C(=O)C[C@](C)(C=C)O[C@]12C
(B) C=CCNC(=O)O[C@H]1[C@H]2C(C)(C)CC[C@H](O)[C@]2(C)[C@@]2(O)C(=O)C[C@](C)(C=C)O[C@]2(C)[C@H]1OC(C)=O
(C) C=C[C@@]1(C)CC(=O)[C@]2(O)[C@@]3(C)[C@@H](O)CCC(C)(C)[C@@H]3[C@H](OC(=O)NCCC)[C@H](O)[C@@]2(C)O1
Query string: Parameters: sort_field (IC50), sort_dir (desc). Please, when replying, give the labels in the order that was requested.
Result string: C, A, B
(C: 555 nM, A: 157 nM, B: 76 nM)
